All values here come from patent EP1247803A2.

# TARGET OR TEST SYSTEM: FLK-1 receptor (Mus musculus)
# Construct: expressed in transfected cells; host or cells: NIH3T3 C7#3
# Sequence (P35918 20-1345): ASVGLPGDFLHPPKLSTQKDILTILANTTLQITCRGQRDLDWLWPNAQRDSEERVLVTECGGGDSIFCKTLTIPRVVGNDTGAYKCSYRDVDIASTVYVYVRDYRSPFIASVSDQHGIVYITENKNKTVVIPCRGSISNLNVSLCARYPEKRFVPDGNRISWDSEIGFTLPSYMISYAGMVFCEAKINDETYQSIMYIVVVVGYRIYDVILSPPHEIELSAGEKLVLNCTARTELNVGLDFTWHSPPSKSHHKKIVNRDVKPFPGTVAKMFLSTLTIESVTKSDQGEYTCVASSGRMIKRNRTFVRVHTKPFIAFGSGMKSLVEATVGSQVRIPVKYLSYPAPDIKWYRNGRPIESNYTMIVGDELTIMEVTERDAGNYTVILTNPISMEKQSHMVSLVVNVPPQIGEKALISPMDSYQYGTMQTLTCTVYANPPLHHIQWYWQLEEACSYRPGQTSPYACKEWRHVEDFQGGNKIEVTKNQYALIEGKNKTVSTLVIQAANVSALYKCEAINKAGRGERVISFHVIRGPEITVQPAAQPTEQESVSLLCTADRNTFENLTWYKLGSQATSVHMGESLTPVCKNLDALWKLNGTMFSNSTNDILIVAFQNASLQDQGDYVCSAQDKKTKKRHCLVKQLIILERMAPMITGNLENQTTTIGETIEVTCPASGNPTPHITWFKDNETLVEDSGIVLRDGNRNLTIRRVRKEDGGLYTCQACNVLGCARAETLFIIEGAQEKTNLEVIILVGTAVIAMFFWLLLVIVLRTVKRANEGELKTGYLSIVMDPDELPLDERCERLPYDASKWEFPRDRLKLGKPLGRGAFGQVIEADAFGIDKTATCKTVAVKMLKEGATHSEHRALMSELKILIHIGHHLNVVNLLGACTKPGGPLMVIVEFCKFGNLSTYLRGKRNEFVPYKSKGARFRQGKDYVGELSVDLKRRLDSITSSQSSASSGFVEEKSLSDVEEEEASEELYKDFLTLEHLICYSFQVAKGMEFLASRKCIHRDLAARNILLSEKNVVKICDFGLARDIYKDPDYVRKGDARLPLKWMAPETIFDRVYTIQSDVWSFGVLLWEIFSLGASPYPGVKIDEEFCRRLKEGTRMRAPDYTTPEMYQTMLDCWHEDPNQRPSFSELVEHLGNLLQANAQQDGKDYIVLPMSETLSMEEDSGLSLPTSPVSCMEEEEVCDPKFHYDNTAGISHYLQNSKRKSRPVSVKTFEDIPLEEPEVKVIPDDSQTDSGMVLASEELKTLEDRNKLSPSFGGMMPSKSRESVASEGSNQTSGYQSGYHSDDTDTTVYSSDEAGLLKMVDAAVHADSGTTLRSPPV
# EXPERIMENTAL DETAILS: FLK-1 ELISA (kinase activity of the FLK-1 receptor in FLK-1/NIH3T3 cells, VEGF stimulated)
# Assay type: cell-based
Parameter Fik Kinase %Inhibition: see the listing below.
Answer in %, number only, no unit symbol.

{"MOLECULE": "CCc1cc(CC)c(C=C2C(=O)Nc3c(Br)cc(Br)cc32)[nH]1", "UNIT SYMBOL": "%", "READOUT NUMBER": 6.3}
{"MOLECULE": "O=C1Nc2ccc(S(=O)(=O)N3CCOCC3)cc2C1=Cc1coc2c(Br)cc(Br)cc2c1=O", "UNIT SYMBOL": "%", "READOUT NUMBER": 14.4}
{"MOLECULE": "Cc1c(Br)ccc2c1C(=Cc1c[nH]cn1)C(=O)N2", "UNIT SYMBOL": "%", "READOUT NUMBER": 104.5}
{"MOLECULE": "COc1cc(OC)c(OC)cc1C=C1C(=O)Nc2ccc(I)cc21", "UNIT SYMBOL": "%", "READOUT NUMBER": -0.5}
{"MOLECULE": "Cc1cc(C=C2C(=O)Nc3ccc(CCCl)cc32)cc(C)c1OCc1ccccc1", "UNIT SYMBOL": "%", "READOUT NUMBER": 19.5}

Input: Bench note: what Fik Kinase %Inhibition did `CNS(=O)(=O)c1ccc2c(c1)C(=Cc1ccc([N+](=O)[O-])o1)C(=O)N2` show?
Output: 13.3

Input: Returns the measured Fik Kinase %Inhibition for the input molecule. Input: `Cc1cc(C=C2C(=O)Nc3c(Br)cc(Br)cc32)cc(C(C)(C)C)c1O`
Output: 7.6

Input: Could you tell me which Fik Kinase %Inhibition is on file for `O=C1Nc2c(Br)cc(Br)cc2C1=Cc1cc(Br)ccc1O` ?
Output: -11.9

Input: Entry under review: `CNS(=O)(=O)c1ccc2c(c1)C(=Cc1cc(Cl)ccc1O)C(=O)N2` . Reported Fik Kinase %Inhibition?
Output: 6.1

Input: Fill in: Fik Kinase %Inhibition of `Cc1[nH]c(C=C2C(=O)Nc3c(Br)cc(Br)cc32)c(Br)c1Br` is ___
Output: -5.8

Input: What value of Fik Kinase %Inhibition has been recorded for this entry: `COc1ccc(C=C2C(=O)Nc3ccc(S(=O)(=O)N4CCOCC4)cc32)c(OC)c1`
Output: 26.6

Input: Given `CC(C)(C)c1cc(C=C2C(=O)Nc3ccc(I)cc32)ccc1O` , state its recorded Fik Kinase %Inhibition.
Output: 9.0

Input: // query Fik Kinase %Inhibition value for entry `O=C1Nc2ccc(I)cc2C1=Cc1ccc(O)cc1`
Output: 12.5

Input: Sample `CNS(=O)(=O)c1ccc2c(c1)C(=Cc1[nH]c(C)c(Br)c1Br)C(=O)N2` — what was its Fik Kinase %Inhibition?
Output: 11.6

Input: Dear colleague, I am looking for the recorded Fik Kinase %Inhibition of the following molecule: `COc1ccc(C=C2C(=O)Nc3ccc(S(=O)(=O)Nc4ccc(C(F)(F)F)cc4)cc32)cc1OC`
Output: 18.4

Input: So what does the record say about Fik Kinase %Inhibition for `CSc1ccc(C=C2C(=O)Nc3ccc(S(=O)(=O)N4CCOCC4)cc32)s1` ?
Output: 4.6

Input: Consider the molecule COC1CC(C=C2C(=O)Nc3c(Br)cc(Br)cc32)C(OC)O1 (stereo not drawn) and give its measured Fik Kinase %Inhibition.
Output: 0.5

Input: For the molecule `Cc1c(Br)ccc2c1C(=Cc1cc(C(C)C)c(Oc3ccccc3)c(C(C)C)c1)C(=O)N2` , what Fik Kinase %Inhibition is on record?
Output: 12.8

Input: # get_value(readout='Fik Kinase %Inhibition', item= `COc1c([N+](=O)[O-])cc(C=C2C(=O)Nc3ccc(S(=O)(=O)Nc4ccc(C(F)(F)F)cc4)cc32)cc1C(C)(C)C` )
Output: 42.6

###

# TARGET OR TEST SYSTEM: PDGF-R (Homo sapiens)
# EXPERIMENTAL DETAILS: PDGF-R ELISA
# Type: cell-based
# Description: A PDGF-R ELISA is described in International Patent Publication No. WO 96/40116, published December 19, 1996 by Tang et al.
Mark TRUE only for PDGF Kinase %Inhibition values smaller than 20%; exact matches and larger values are FALSE.

Example entries begin here.
{"COMPOUND": "O=C1Nc2ccc(S(=O)(=O)Nc3ccc(C(F)(F)F)cc3)cc2C1=Cc1c(F)cccc1C(F)(F)F [10728/E09]", "LABEL": "FALSE"}
{"COMPOUND": "COc1c(C(C)C)cc(C=C2C(=O)Nc3ccc(Br)c(C)c32)cc1C(C)C [10732/C03]", "LABEL": "TRUE"}
{"COMPOUND": "COc1ccc(C=C2C(=O)Nc3c(Br)cc(Br)cc32)cc1C(C)(C)C [10732/A05]", "LABEL": "TRUE"}
{"COMPOUND": "COc1ccc(C=C2C(=O)Nc3ccc(I)cc32)cc1C(C)(C)C [10732/B05]", "LABEL": "FALSE"}

Input: Would you kindly verify if PDGF Kinase %Inhibition of COc1c(C(C)C)cc(C=C2C(=O)Nc3ccc(S(=O)(=O)Nc4ccc(C(F)(F)F)cc4)cc32)cc1C(C)C [10732/E03] is strictly less than 20%?
Output: FALSE

Input: Regarding Cc1cn(C)cc1C=C1C(=O)Nc2ccc(S(=O)(=O)N3CCOCC3)cc21 [10726/F06] , kindly confirm whether its PDGF Kinase %Inhibition is beneath 20%.
Output: TRUE

###

# TARGET OR TEST SYSTEM: PDGF-R (Homo sapiens, UniProt P09619)
# Sequence (P09619 33-1106, species assumed): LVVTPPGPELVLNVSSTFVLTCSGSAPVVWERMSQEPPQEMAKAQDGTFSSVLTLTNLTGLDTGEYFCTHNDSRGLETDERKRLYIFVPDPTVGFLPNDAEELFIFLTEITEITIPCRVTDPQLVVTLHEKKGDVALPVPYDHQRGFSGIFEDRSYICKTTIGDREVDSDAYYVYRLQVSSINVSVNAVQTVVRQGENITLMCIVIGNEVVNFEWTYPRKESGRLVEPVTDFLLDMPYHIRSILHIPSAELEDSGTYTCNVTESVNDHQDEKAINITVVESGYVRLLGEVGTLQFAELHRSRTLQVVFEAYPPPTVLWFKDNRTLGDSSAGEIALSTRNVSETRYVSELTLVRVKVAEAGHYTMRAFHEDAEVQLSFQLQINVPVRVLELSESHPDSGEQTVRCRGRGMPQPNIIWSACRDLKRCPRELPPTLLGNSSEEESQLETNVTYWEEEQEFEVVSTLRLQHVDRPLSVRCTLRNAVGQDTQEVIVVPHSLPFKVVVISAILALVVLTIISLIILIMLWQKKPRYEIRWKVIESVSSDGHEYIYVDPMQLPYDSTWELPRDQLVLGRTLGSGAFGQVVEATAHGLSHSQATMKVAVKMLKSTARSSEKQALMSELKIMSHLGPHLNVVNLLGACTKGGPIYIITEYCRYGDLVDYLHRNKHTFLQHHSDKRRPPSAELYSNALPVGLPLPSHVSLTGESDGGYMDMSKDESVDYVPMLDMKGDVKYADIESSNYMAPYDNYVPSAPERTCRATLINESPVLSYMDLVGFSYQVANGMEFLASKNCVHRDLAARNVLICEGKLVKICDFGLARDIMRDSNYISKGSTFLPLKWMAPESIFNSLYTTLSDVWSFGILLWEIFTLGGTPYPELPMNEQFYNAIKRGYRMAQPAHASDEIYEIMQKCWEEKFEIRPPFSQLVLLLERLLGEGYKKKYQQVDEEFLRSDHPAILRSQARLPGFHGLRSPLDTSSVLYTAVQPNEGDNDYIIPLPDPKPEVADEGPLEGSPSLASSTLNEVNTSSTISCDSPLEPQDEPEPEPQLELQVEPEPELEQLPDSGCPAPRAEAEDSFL
# EXPERIMENTAL DETAILS: PDGF-R ELISA
# Format: cell-based
hey, just use 1 if measured PDGF Kinase %Inhibition is less than 20%, otherwise -1

Please review the following examples before continuing.
{"COMPOUND": "CCn1c2ccccc2c2cc(C=C3C(=O)Nc4ccc(Br)c(C)c43)ccc21", "LABEL": 1}
{"COMPOUND": "Cc1c(Br)ccc2c1C(=Cc1cc(Cl)cc(Br)c1O)C(=O)N2", "LABEL": -1}
{"COMPOUND": "O=C1Nc2ccc(S(=O)(=O)Nc3ccc(C(F)(F)F)cc3)cc2C1=Cc1cc(Br)cc(Br)c1O", "LABEL": 1}
{"COMPOUND": "COc1c(Br)cc(C=C2C(=O)Nc3ccc(I)cc32)cc1C(C)(C)C", "LABEL": -1}
{"COMPOUND": "CCCCN(CCCC)c1ccc(C=C2C(=O)Nc3ccc(CCCl)cc32)cc1", "LABEL": 1}
{"COMPOUND": "CCN(CC)c1ccc(C=C2C(=O)Nc3ccc(S(=O)(=O)N4CCOCC4)cc32)c(O)c1", "LABEL": 1}
{"COMPOUND": "CC(C)(C)c1cc(C=C2C(=O)Nc3c(Br)cc(Br)cc32)cc(Br)c1OCc1ccccc1", "LABEL": -1}
{"COMPOUND": "O=C1Nc2c(Br)cc(Br)cc2C1=Cc1cc2c3c(c1O)CCCN3CCC2", "LABEL": 1}

Input: Does the reported PDGF Kinase %Inhibition of the following compound sit strictly below 20%? `Cc1cc2occ(C=C3C(=O)Nc4ccc(S(=O)(=O)Nc5ccc(C(F)(F)F)cc5)cc43)c(=O)c2cc1C`
Output: 1

Input: Would you kindly verify if PDGF Kinase %Inhibition of `Cc1ccsc1C=C1C(=O)Nc2ccc(I)cc21` is strictly less than 20%?
Output: 1

Input: Please indicate whether the reported PDGF Kinase %Inhibition of `CC(C)c1cc(C=C2C(=O)Nc3ccc(CCCl)cc32)cc(C(C)C)c1Oc1ccccc1` is strictly below 20%.
Output: -1

Input: Regarding `O=C1Nc2ccc(S(=O)(=O)N3CCOCC3)cc2C1=Cc1ccc(O)c(Br)c1` , kindly confirm whether its PDGF Kinase %Inhibition is beneath 20%.
Output: 1

Input: Below 20% on PDGF Kinase %Inhibition? Entry `CCOC(=O)c1[nH]c(C=C2C(=O)Nc3ccc(S(=O)(=O)N4CCOCC4)cc32)c(C(=O)OC)c1C`
Output: 1

Input: # check: PDGF Kinase %Inhibition < 20% for `Cc1csc2sc(C=C3C(=O)Nc4ccc(S(=O)(=O)Nc5ccc(C(F)(F)F)cc5)cc43)c(C)c12`
Output: 1

Input: PDGF Kinase %Inhibition strictly < 20% for this compound? O=C1Nc2c(Br)cc(Br)cc2C1=CC1C=CCCC1 (centres unmarked)
Output: 1

Input: A record lists `COc1c(I)cc(C=C2C(=O)Nc3ccc(CCCl)cc32)cc1C(C)(C)C` . Is its PDGF Kinase %Inhibition below 20%?
Output: -1

Input: For `COc1c(C)cc(C=C2C(=O)Nc3ccc(S(=O)(=O)N4CCOCC4)cc32)cc1C` , is the recorded PDGF Kinase %Inhibition below the cut-off of 20%?
Output: 1
